REPORTED_CONDITIONS: Ebola virus entry assay, ratio channel readout
The source made the active and inactive calls. Calls come from the whole dose curve.
A correct response names exactly one class from 1 (yes) = active, 0 (no) = inactive

Prompt: Tell me the recorded outcome of this test for Cc1cc2c(s1)Nc1ccccc1N=C2N1CCN(C)CC1 .
Response: 0 (no)

Prompt: Assay outcome for CCCCNc1ccc(C(=O)OCCOCCOCCOCCOCCOCCOCCOCCOCCOC)cc1 : what was it?
Response: 0 (no)

Prompt: Please share the test call associated with CS(=O)(=O)CCNCc1ccc(-c2ccc3ncnc(Nc4ccc(OCc5cccc(F)c5)c(Cl)c4)c3c2)o1 .
Response: 0 (no)

Prompt: Check the results log: what was the call for CO/N=C(\C(=O)N[C@@H]1C(=O)N2C(C(=O)O)=C(CSc3nc(=O)c(O)nn3C)CS[C@H]12)c1csc(N)n1 ?
Response: 0 (no)

Prompt: Assay outcome for COc1cc2nc(N3CCN(C(=O)c4ccco4)CC3)nc(N)c2cc1OC : what was it?
Response: 0 (no)

Prompt: Lab log entry: CC(C)c1nc(CN(C)C(=O)N[C@H](C(=O)N[C@@H](Cc2ccccc2)C[C@H](O)[C@H](Cc2ccccc2)NC(=O)OCc2cncs2)C(C)C)cs1 — outcome as called in the assay?
Response: 0 (no)

Prompt: What did this assay record as the result for CCCNCC(O)COc1ccccc1C(=O)CCc1ccccc1 (centres undefined) ?
Response: 1 (yes)

Prompt: Which result was noted for this compound in the test: Cc1ccc(O)c([C@H](CCN(C(C)C)C(C)C)c2ccccc2)c1
Response: 0 (no)

Prompt: Hi, do you know how O=C(O)C1(C(=O)O)CCC1.[NH2-].[NH2-].[Pt+2] came out in this test?
Response: 0 (no)

====

METHOD: qHTS for Inhibitors of ATXN expression: Validation of Cytotoxic Assay (AID 588349);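 note: cells exposed to compound for 72 hr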
REPORTED_CONDITIONS: cytotoxicity counter-screen for ATXN expression inhibitors, cell viability; series mostly up to 57.1 µM
Inconclusive results are not listed. Active and inactive are the calls of the source. Calls come from the whole dose curve; as a rule, active = well fitted cell-killing curve with a large enough effect; inconclusive = small, poorly fitted or top-dose-only effect, or effect the other way; inactive = flat fitted curve, though single readings scatter.
Pick one and only one: active, inactive

Prompt: Returns: the outcome recorded for N#CC(C#N)=Cc1ccc(O)c(O)c1 in this assay.
Response: inactive

Prompt: // outcome(item) with item = CC(O)(CS(=O)(=O)c1ccc(F)cc1)C(=O)Nc1ccc(C#N)c(C(F)(F)F)c1 (stereo not given)
Response: inactive

Prompt: Hello, I am checking results. What call was entered for CC(=O)[C@H]1CC[C@H]2[C@@H]3CC[C@H]4C[C@H](O)CC[C@]4(C)[C@H]3C(=O)C[C@]12C ?
Response: inactive

Prompt: Answer briefly: the call reported for c1ccc2c(c1)OCC(C1=NCCN1)O2 (stereo not given) in this assay.
Response: active

Prompt: Give the logged outcome of this assay for the following compound: CNCCC(Oc1ccc(C(F)(F)F)cc1)c1ccccc1 (stereo not given)
Response: active

====

REPORTED_CONDITIONS: Ebola virus entry cell assay, ratio channel
Active and inactive are the calls of the source. Calls follow the shape of the full dose curve.
Classes to choose from: active, inactive

Prompt: Test call, this compound: C=C1C[C@@H]2[C@H](CC[C@]3(C)C(=O)CC[C@@H]23)[C@@]2(C)C=CC(=O)C=C12
Response: active

Prompt: Field: outcome | Entry: CC(C)(O)c1ccccc1CC[C@@H](SCC1(CC(=O)O)CC1)c1cccc(/C=C/c2ccc3ccc(Cl)cc3n2)c1
Response: inactive

Prompt: Test call, this compound: CN1CCN(C(=O)O[C@H]2c3nccnc3C(=O)N2c2ccc(Cl)cn2)CC1
Response: inactive

Prompt: Recorded test call requested for C[C@@H](c1ncncc1F)C(O)(Cn1cncn1)c1ccc(F)cc1F (some centres not stated)
Response: inactive

Prompt: // param item: Cc1ccc(-c2nc3ccc(C)cn3c2CC(=O)N(C)C)cc1 ; yields the recorded call
Response: inactive

Prompt: Tell me the recorded outcome of this test for CC1=C(C(=O)O)N2C(=O)[C@@H](NC(=O)[C@H](N)c3ccc(O)cc3)[C@H]2SC1 .
Response: inactive

Prompt: Per the assay record, what outcome was assigned to NCC1(CC(=O)O)CCCCC1 ?
Response: inactive

Prompt: State the result this test recorded for CNC(=O)c1cc(Oc2ccc(NC(=O)Nc3ccc(Cl)c(C(F)(F)F)c3)cc2)ccn1 .
Response: inactive

Prompt: Test call, this compound: O=C1NC(=O)C(c2ccccc2)(c2ccccc2)N1
Response: inactive

Prompt: // param item: CN1CCN(C(c2ccccc2)c2ccccc2)CC1 ; yields the recorded call
Response: inactive

Prompt: Per the assay record, what outcome was assigned to O=C1OCCN1/N=C/c1ccc([N+](=O)[O-])o1 ?
Response: inactive

Prompt: What did this assay record as the result for Cc1c(O)cccc1C(=O)N[C@@H](CSc1ccccc1)[C@H](O)CN1C[C@H]2CCCC[C@H]2C[C@H]1C(=O)NC(C)(C)C ?
Response: inactive

Prompt: Outcome logged for O=C1N=C(O)CN1/N=C/c1ccc(-c2ccc([N+](=O)[O-])cc2)o1 in this assay:
Response: inactive

Prompt: I would be grateful if you could indicate the recorded call for CC1=NS(=O)(=O)c2cc(Cl)ccc2N1 .
Response: inactive

Prompt: Recorded call for O[C@@H](c1cc(C(F)(F)F)nc2c(C(F)(F)F)cccc12)[C@H]1CCCCN1 ?
Response: active

Prompt: I would be grateful if you could indicate the recorded call for CCCCc1nc(Cl)c(CO)n1Cc1ccc(-c2ccccc2-c2nn[nH]n2)cc1 .
Response: inactive

Prompt: What call does the record list for CNCCCC1c2ccccc2C=Cc2ccccc21 ?
Response: active

Prompt: Name the outcome recorded for Cc1ccnc2c1NC(=O)c1cccnc1N2C1CC1 in the assay.
Response: inactive

Prompt: Hi, do you know how Cc1ccc(-n2[nH]c(C)c(N=Nc3cccc(-c4cccc(C(=O)O)c4)c3O)c2=O)cc1C came out in this test?
Response: inactive

Prompt: Can you look up the reported call for CCN(CC)C(=S)SSC(=S)N(CC)CC for me?
Response: inactive

Prompt: Record lookup: outcome of this test for Cc1ccc(-c2cc(C(F)(F)F)nn2-c2ccc(S(N)(=O)=O)cc2)cc1 ?
Response: active

Prompt: Please let me know the test result on file for CCC1(c2ccccc2)C(=O)NCNC1=O .
Response: inactive
